B1: POU domain, class 2, transcription factor 2, residues 200 to 269; numbered along this chain, P09086 (parent)
chain: LEELEQFARTFKQRRIKLGFTQGDVGLAMGKLYGNDFSQTTISRFEALNLSFKNMCKLKPLLEKWLNDAE

- Variants of: B1
- protocol: abundance fitness (aPCA) (normalised: wild type 0, dead -1); higher = more abundant; growth selection in yeast, the domain comes from the species named
- protocol-conditions: Homo sapiens
measurement-kind: abundance fitness
Keep the answer to the number alone.

L58V    -0.005
S51G    -0.05
P60H    -0.216
A69R    -0.007
K17C    0.011

Entry under test: M29D . Its abundance fitness was -0.314

Sample K57R ; abundance fitness observed: -0.064

Looking up L4M , I found its abundance fitness recorded as -0.032

Record Q39A , field abundance fitness: -0.032

Entry Q39M — recorded abundance fitness = -0.024

Field abundance fitness (entry M29E ) reads -0.976

Every entry's value here was drawn from the Human Domainome abundance scans (Beltran et al. 2025).
